All figures here come from ChEMBL document CHEMBL1138807.

target: Nitric oxide synthase 1 (Rattus norvegicus); assay: Percent inhibition towards rat striatal neuronal nitric oxide synthase (nNOs) at 1 mM concentration (value is mean +/- SEM)
Each entry below carries its reported inhibition.
Kindly provide the numeric value in % only, without the unit symbol.

Param readout= inhibition; system= Nitric oxide synthase 1 (Rattus norvegicus); entry= Nc1ccccc1C1=NN(C(=O)c2ccccc2)CC1 ; returns value.
57

Param readout= inhibition; system= Nitric oxide synthase 1 (Rattus norvegicus); entry= COc1ccc(N)c(C2=NN(C(=O)C3CC3)CC2)c1 ; returns value.
62.2

Param readout= inhibition; system= Nitric oxide synthase 1 (Rattus norvegicus); entry= Nc1ccccc1C1=NN(C(=O)C2CC2)CC1 ; returns value.
38.8

Param readout= inhibition; system= Nitric oxide synthase 1 (Rattus norvegicus); entry= COc1ccc(N)c(C(=O)CC(NC(C)=O)C(=O)O)c1 (configuration not stated) ; returns value.
68.5

Param readout= inhibition; system= Nitric oxide synthase 1 (Rattus norvegicus); entry= CC(=O)N1CCC(c2cc(Cl)ccc2N)=N1 ; returns value.
47.6

Param readout= inhibition; system= Nitric oxide synthase 1 (Rattus norvegicus); entry= CCC(=O)N1CCC(c2cc(Cl)ccc2N)=N1 ; returns value.
46.1

Param readout= inhibition; system= Nitric oxide synthase 1 (Rattus norvegicus); entry= COc1ccc(N)c(C2=NN(C(=O)C3CCCCC3)CC2)c1 ; returns value.
62.2

Param readout= inhibition; system= Nitric oxide synthase 1 (Rattus norvegicus); entry= CCCCC(=O)N1CCC(c2cc(OC)ccc2N)=N1 ; returns value.
49.8

Param readout= inhibition; system= Nitric oxide synthase 1 (Rattus norvegicus); entry= COc1ccc(N)c(C2=NN(C(=O)c3ccccc3)CC2)c1 ; returns value.
58.9

Param readout= inhibition; system= Nitric oxide synthase 1 (Rattus norvegicus); entry= COc1ccc(N)c(C2=NN(C(C)=O)CC2)c1 ; returns value.
38

Param readout= inhibition; system= Nitric oxide synthase 1 (Rattus norvegicus); entry= CCCC(=O)NC(CC(=O)c1cc(OC)ccc1N)C(=O)O (configuration not stated) ; returns value.
45

Param readout= inhibition; system= Nitric oxide synthase 1 (Rattus norvegicus); entry= Nc1ccc(Cl)cc1C1=NN(C(=O)c2ccccc2)CC1 ; returns value.
61.1
